observation type: IC50 (nM)
Numbers only; they are read as nM.

### Prompt Kindly state the measured IC50 obtained for COc1cc(Oc2ccc3nc(/C=C/C(=O)NO)ccc3c2)cc(OC)c1OC with Protein deacetylase HDAC6 (Homo sapiens, UniProt Q9UBN7).
Sequence (Q9UBN7 whole entry): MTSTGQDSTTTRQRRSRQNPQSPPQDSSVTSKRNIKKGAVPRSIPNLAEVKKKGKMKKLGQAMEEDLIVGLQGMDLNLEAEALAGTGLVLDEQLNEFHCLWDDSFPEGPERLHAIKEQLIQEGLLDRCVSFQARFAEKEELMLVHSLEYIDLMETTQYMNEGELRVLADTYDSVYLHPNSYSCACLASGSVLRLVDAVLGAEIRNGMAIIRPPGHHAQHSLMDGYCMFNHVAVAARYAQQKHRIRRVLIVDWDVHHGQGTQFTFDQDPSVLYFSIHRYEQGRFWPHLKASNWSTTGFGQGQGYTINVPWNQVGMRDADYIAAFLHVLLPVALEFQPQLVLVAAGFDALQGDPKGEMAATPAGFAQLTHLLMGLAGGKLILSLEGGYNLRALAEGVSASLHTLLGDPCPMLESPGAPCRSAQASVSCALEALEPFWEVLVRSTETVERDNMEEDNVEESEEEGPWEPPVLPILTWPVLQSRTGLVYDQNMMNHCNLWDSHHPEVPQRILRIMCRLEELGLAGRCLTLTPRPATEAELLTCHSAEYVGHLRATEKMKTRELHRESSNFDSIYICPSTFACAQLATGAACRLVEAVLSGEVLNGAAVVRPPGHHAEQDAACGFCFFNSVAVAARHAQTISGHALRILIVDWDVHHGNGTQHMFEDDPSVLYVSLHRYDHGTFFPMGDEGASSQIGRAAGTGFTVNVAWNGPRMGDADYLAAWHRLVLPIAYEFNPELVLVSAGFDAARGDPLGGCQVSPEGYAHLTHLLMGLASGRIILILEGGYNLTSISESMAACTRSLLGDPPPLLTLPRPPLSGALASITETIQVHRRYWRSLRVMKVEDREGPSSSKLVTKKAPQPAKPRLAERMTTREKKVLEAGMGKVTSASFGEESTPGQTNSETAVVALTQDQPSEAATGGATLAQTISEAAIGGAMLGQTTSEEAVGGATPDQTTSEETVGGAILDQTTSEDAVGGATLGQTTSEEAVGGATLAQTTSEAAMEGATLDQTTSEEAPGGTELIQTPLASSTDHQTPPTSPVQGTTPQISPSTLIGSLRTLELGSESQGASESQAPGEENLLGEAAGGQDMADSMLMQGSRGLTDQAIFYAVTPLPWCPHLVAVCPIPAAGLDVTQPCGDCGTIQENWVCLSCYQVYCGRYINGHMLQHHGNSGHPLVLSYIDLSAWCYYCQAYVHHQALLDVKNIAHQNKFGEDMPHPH
### Response 26.5

----------
biological target: UniProt Q13547; test: Inhibition of recombinant human C-terminal FLAG/His-tagged HDAC1 (1 to 482 residues) expressed in Sf21 insect cells by using RHK-K(Ac)-AMC as substrate measured after 60 mins by fluorescence assay; settings: read-out: IC50
Sequence (Q13547 whole entry, the tested form may be a part): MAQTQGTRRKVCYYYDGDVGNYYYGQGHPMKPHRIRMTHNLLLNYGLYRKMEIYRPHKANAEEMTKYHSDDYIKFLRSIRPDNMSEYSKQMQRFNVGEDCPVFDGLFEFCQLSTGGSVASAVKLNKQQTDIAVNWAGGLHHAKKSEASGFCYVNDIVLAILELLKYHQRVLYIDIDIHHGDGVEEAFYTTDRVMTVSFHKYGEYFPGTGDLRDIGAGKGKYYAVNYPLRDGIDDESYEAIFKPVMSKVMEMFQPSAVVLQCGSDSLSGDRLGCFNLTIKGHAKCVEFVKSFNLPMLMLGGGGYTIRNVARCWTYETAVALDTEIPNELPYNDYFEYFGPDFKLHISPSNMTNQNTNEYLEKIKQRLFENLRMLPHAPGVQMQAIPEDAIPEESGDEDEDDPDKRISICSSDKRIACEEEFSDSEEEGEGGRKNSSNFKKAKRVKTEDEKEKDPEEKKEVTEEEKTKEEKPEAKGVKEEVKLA
Assign pIC50 to each entry below.
Expect pIC50 as a plain number equal to -log10 of the molar concentration.

### Prompt Report pIC50 for COc1cc(Oc2ccc3nc(/C=C/C(=O)NO)ccc3c2)cc(OC)c1OC please.
### Response 5.75

### Prompt Report pIC50 for O=C(/C=C/c1ccc2cc(Oc3ccc([N+](=O)[O-])cc3)ccc2n1)NO please.
### Response 5.22
